The entries below come with measured Blocking Efficiency (%) values attached.
biological target: T1, human PD-L1 on DU-145 cancer cells (human, UniProt Q9NZQ7 19-290); assay: blocking of PD-1 binding to DU-145 cells; further: test concentration or dose not given here
T1 construct: whole, on cells; Endogenous PD-L1 of a PD-L1-positive human cancer cell line
T1 sequence (Q9NZQ7 19-290): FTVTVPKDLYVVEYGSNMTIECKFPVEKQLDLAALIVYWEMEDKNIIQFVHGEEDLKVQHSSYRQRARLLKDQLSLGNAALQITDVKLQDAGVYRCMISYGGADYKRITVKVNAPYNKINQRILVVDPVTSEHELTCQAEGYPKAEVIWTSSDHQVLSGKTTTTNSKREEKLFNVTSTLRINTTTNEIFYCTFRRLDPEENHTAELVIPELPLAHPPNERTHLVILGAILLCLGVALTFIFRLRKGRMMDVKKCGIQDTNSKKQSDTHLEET
No end group written: not given here.
Entry rule: numbers only, all in %.

Answered examples (3):
Binder	Units of measure	Blocking Efficiency (%)
DYHDPSLPTLRK (not fully specified, 12-mer from phage display) [CLP004 peptide]	%	60
WHFSYNWRWLPP (not fully specified, 12-mer from phage display) [CLP003 peptide]	%	56
HYPFRPHANQAS (not fully specified, 12-mer from phage display) [CLP001 peptide]	%	0

Would you kindly look at the next entry?
Which Blocking Efficiency (%) value belongs to WHRSYYTWNLNT (not fully specified, 12-mer from phage display) [CLP002 peptide] ? 80
